Would you mind telling me the reported MRT of each entry?
PROTOCOL DESCRIPTION: clinical
RUN PARAMETERS: human, in vivo, iv
Give bare numbers, in h.

Known results for compounds:
COMPOUND	QUANTITY UNIT	ENDPOINT VALUE
CO/N=C(\C(=O)N[C@@H]1C(=O)N2C(C(=O)O)=C(COC(C)=O)CS[C@H]12)c1csc(N)n1	h	1.2
COc1c(N2CCNC(C)C2)c(F)cc2c(=O)c(C(=O)O)cn(C3CC3)c12 (stereo not drawn)	h	11
CN[C@@H](C)Cc1ccccc1	h	16
NC[C@H]1O[C@H](O[C@H]2[C@H](O)[C@@H](O[C@H]3O[C@H](CO)[C@@H](O)[C@H](N)[C@H]3O)[C@H](N)C[C@@H]2N)[C@H](O)[C@@H](O)[C@@H]1O	h	3.1
C[C@@H]1CC(=O)NN=C1c1ccc(NN=C(C#N)C#N)cc1	h	1.1

Please give MRT, item by item, for the list that follows.
1. Cc1cccc(N2CC(CO)OC2=O)c1 (stereo not drawn)
2. CC(C)(C)[C@H](NC(=O)[C@H](CC1CCCC1)CN(O)C=O)C(=O)N1CCN(Cc2ccc3c(c2)OCO3)CC1
3. CN1C(=O)NC(=O)C(C)(C2=CCCCC2)C1=O (stereo not drawn) [HEXOBARBITAL]

[2.3, 5.9, 5.4]

====

PROTOCOL DESCRIPTION: clinical
RUN PARAMETERS: human, in vivo, iv
EXPERIMENTAL ENDPOINT: log10 MRT (log10 of the value in h)
Heads up, the numbers here are log10 of MRT in h units.

Completed entries (count: 5):
COMPOUND	log10 MRT
CCN1CC(CCN2CCOCC2)C(c2ccccc2)(c2ccccc2)C1=O (stereo unspecified)	0.57
COc1cc(CC(=O)NCC(=O)N(CCC(=O)O)Cc2ccc(OC)c(OC)c2)ccc1NC(=O)Nc1ccccc1C	-0.42
O=C(O)CCCc1ccc(N(CCCl)CCCl)cc1	0.18
CCCCCN(CCCOC)C(=O)C(CCC(=O)O)NC(=O)c1ccc(Cl)c(Cl)c1 (stereo unspecified) [LOXIGLUMIDE]	0.60
CCCCCCCCCC(=O)N[C@@H](Cc1c[nH]c2ccccc12)C(=O)N[C@H](CC(N)=O)C(=O)N[C@@H](CC(=O)O)C(=O)N[C@@H]1C(=O)NCC(=O)N[C@@H](CCCN)C(=O)N[C@@H](CC(=O)O)C(=O)N[C@H](C)C(=O)N[C@@H](CC(=O)O)C(=O)NCC(=O)N[C@H](CO)C(=O)N[C@@H]([C@H](C)CC(=O)O)C(=O)N[C@@H](CC(=O)c2ccccc2N)C(=O)O[C@@H]1C	0.96

Each of the following entries comes with a recorded value; kindly state log10 MRT for each.
1. CCC[C@@H]1C[C@@H](C(=O)N[C@@H]([C@H]2O[C@H](SC)[C@H](O)[C@@H](O)[C@H]2O)[C@@H](C)O)N(C)C1
2. CC(C)(O/N=C(\C(=O)N[C@@H]1C(=O)N2C(C(=O)[O-])=C(C[n+]3ccccc3)CS[C@H]12)c1csc(N)n1)C(=O)O

[0.88, 0.34]

====

PROTOCOL DESCRIPTION: clinical
RUN PARAMETERS: human, in vivo, iv
EXPERIMENTAL ENDPOINT: MRT (h)
Numbers only, in h.

Use these answered entries as a reference point.
COMPOUND	EXPERIMENTAL ENDPOINT	ENDPOINT VALUE
CC(=O)O[C@@]12CO[C@@H]1C[C@H](O)[C@@]1(C)C(=O)[C@H](O)C3=C(C)[C@@H](OC(=O)[C@H](O)[C@@H](NC(=O)OC(C)(C)C)c4ccccc4)C[C@@](O)([C@@H](OC(=O)c4ccccc4)[C@H]21)C3(C)C.O.O.O	MRT	2.5
CC(=O)CCCCn1c(=O)c2c(ncn2C)n(C)c1=O	MRT	0.77
CC(C)NCC(O)c1ccc(O)c(O)c1 (configuration not stated)	MRT	0.43

Lab note: each compound below needs its MRT filled in.
1. CC(C)(C)NC[C@H](O)COc1nsnc1N1CCOCC1
2. O=C1CN=C(c2ccccn2)c2cc(Br)ccc2N1
3. Cc1ccccc1N1C(=O)c2cc(S(N)(=O)=O)c(Cl)cc2NC1C (configuration not stated)
4. CN1CCN2c3ncccc3Cc3ccccc3C2C1 (configuration not stated)
5. CC[C@H]1OC(=O)[C@H](C)[C@@H](O[C@H]2C[C@@](C)(OC)[C@@H](O)[C@H](C)O2)[C@H](C)[C@@H](O[C@@H]2O[C@H](C)C[C@H](N(C)C)[C@H]2O)[C@](C)(O)C[C@@H](C)CN(C)[C@H](C)[C@@H](O)[C@]1(C)O
6. CCC(=O)O[C@]1(C(=O)SCF)[C@H](C)C[C@H]2[C@@H]3C[C@H](F)C4=CC(=O)C=C[C@]4(C)[C@@]3(F)[C@@H](O)C[C@@]21C [FLUTICASONE PROPIONATE]
7. CC1(C)S[C@@H]2[C@H](NC(=O)[C@H](N)c3ccccc3)C(=O)N2[C@H]1C(=O)O

1. 3
2. 28
3. 19
4. 8.8
5. 57
6. 3.9
7. 1.3

Go through the items and report each one's MRT.
1. CNCCCN1c2ccccc2CCc2ccccc21
2. CC1(C)O[C@@H]2C[C@H]3[C@@H]4CCC5=CC(=O)C=C[C@]5(C)[C@@]4(F)[C@@H](O)C[C@]3(C)[C@]2(C(=O)CO)O1 [TRIAMCINOLONE ACETONIDE]
3. CCN(CC)C(=O)/C(C#N)=C/c1cc(O)c(O)c([N+](=O)[O-])c1
4. CCOC(=O)[C@]1(c2ccccc2)CCC=C[C@H]1NC
5. Nc1c(CC(=O)O)cccc1C(=O)c1ccc(Br)cc1
6. CCCC(C)C1(CC)C(=O)NC(=S)NC1=O (configuration not stated)
7. CN(C)[C@@H]1C(O)=C(C(=O)NCN2CCCC2)C(=O)[C@@]2(O)C(O)=C3C(=O)c4c(O)cccc4[C@@](C)(O)[C@H]3C[C@@H]12
8. O=C(CCCN1CCC(n2c(O)nc3ccccc32)CC1)c1ccc(F)cc1

[23, 2.5, 0.38, 4.2, 1.5, 2.4, 9.3, 7.5]

====

PROTOCOL DESCRIPTION: clinical
RUN PARAMETERS: human, in vivo, iv, Vdss
Please go through the items and note down their Vd.
Numbers only, in L/kg.

Example cases with answers are listed next.
MOLECULE	QUANTITY UNIT	ENDPOINT VALUE
NC[C@H]1CC[C@H](C(=O)O)CC1	L/kg	0.38
CN(C)Cc1nnc2n1-c1ccc(Cl)cc1C(c1ccccc1)=NC2	L/kg	0.98

I have 5 molecules here; please give me Vd for each one.
1. C=CC[N+]12CC[C@@]34c5ccccc5N5/C=C6/[C@H]7C[C@H]8[C@@]9(CC[N@@+]8(CC=C)C/C7=C/CO)c7ccccc7N(/C=C(/[C@@H](C[C@@H]31)/C(=C\CO)C2)[C@H]54)[C@@H]69 (stereo partly drawn)
2. CO/N=C(\C(=O)N[C@@H]1C(=O)N2C(C(=O)O)=CCS[C@H]12)c1csc(N)n1
3. Cc1cccc([C@H](C)c2cnc[nH]2)c1C
4. CCOC(=O)C1(c2ccccc2)CCN(C)CC1
5. CCc1nc(N)nc(N)c1-c1ccc(Cl)cc1

1: 0.32; 2: 0.2; 3: 1.6; 4: 2.3; 5: 0.43

Can you look up the measured Vd of O=C(NCC1CCCCN1)c1cc(OCC(F)(F)F)ccc1OCC(F)(F)F (stereo not drawn) [FLECAINIDE] for me?
6.1

====

PROTOCOL DESCRIPTION: clinical
RUN PARAMETERS: human, in vivo, iv, CL
EXPERIMENTAL ENDPOINT: clearance (mL/min/kg)
One number for each entry, in mL/min/kg.

Worked cases, answers included:
MOLECULE	QUANTITY UNIT	clearance
Cc1cc(=O)n(-c2ccccc2)n1C [ANTIPYRINE]	mL/min/kg	0.64
C#C[C@]1(O)CC[C@H]2[C@@H]3CCC4=CC(=O)CC[C@@H]4[C@H]3CC[C@@]21CC [LEVONORGESTREL]	mL/min/kg	1.8
CCC1=C[C@@H]2CN(C1)Cc1c([nH]c3ccccc13)[C@@](C(=O)OC)(c1cc3c(cc1OC)N(C)[C@H]1[C@@](O)(C(=O)OC)[C@H](OC(C)=O)[C@]4(CC)C=CCN5CC[C@]31[C@@H]54)C2 (stereo in doubt; form 1) [VINORELBINE]	mL/min/kg	12

The record that follows has no clearance shown yet.
So what does the record say about clearance for CCN(CC)CCCC(C)Nc1ccnc2cc(Cl)ccc12 (centres undefined) [CHLOROQUINE] ?
4.1
